Origin of values: paper PMC11702666

# TEST: in vivo
# RECORDED_CONDITIONS: female, Sprague-Dawley, rat, iv, 15 mg/kg, t1/2 (elimination half-life), pregnant rats, fetus, nirmatrelvir 15 mg/kg i.v. plus ritonavir 7 mg/kg i.v.
PROPERTY: half-life (h)

INSERT INTO assay_data (compound, value_measured) VALUES
  ('CC(C)(C)[C@H](NC(=O)C(F)(F)F)C(=O)N1C[C@H]2[C@@H]([C@H]1C(=O)N[C@H](C#N)C[C@@H]1CCNC1=O)C2(C)C [Nirmatrelvir]', 13.7);

====

# TEST: in vivo
# RECORDED_CONDITIONS: female, Sprague-Dawley, rat, iv, 15 mg/kg, MRT (mean residence time), pregnant rats, fetus, nirmatrelvir 15 mg/kg i.v. plus ritonavir 7 mg/kg i.v.
PROPERTY: MRT (h)

INSERT INTO results (structure_as_smiles, property, value_measured) VALUES
  ('CC(C)(C)[C@H](NC(=O)C(F)(F)F)C(=O)N1C[C@H]2[C@@H]([C@H]1C(=O)N[C@H](C#N)C[C@@H]1CCNC1=O)C2(C)C', 'MRT', 21.1);

====

# TEST: in vivo
# RECORDED_CONDITIONS: female, Sprague-Dawley, rat, iv, 15 mg/kg, AUClast, pregnant rats, placenta, nirmatrelvir 15 mg/kg i.v. alone
PROPERTY: AUC(0-t) (ng·h/mL)

INSERT INTO measurements (compound, reading_unit, value_measured) VALUES
  ('CC(C)(C)[C@H](NC(=O)C(F)(F)F)C(=O)N1C[C@H]2[C@@H]([C@H]1C(=O)N[C@H](C#N)C[C@@H]1CCNC1=O)C2(C)C [Nirmatrelvir]', 'ng·h/mL', 8010);

====

# TEST: in vivo
# RECORDED_CONDITIONS: female, Sprague-Dawley, rat, iv, 15 mg/kg, AUCtissue/AUCblood (maternal blood-to-tissue transfer ratio), pregnant rats, fetus, nirmatrelvir 15 mg/kg i.v. alone
PROPERTY: Kp

INSERT INTO results (structure_as_smiles, value_measured) VALUES
  ('CC(C)(C)[C@H](NC(=O)C(F)(F)F)C(=O)N1C[C@H]2[C@@H]([C@H]1C(=O)N[C@H](C#N)C[C@@H]1CCNC1=O)C2(C)C', 0.06);

====

# TEST: in vivo
# RECORDED_CONDITIONS: male, Sprague-Dawley, rat, iv, 15 mg/kg
PROPERTY: Kp

INSERT INTO results (compound, value_measured) VALUES
  ('CC(C)(C)[C@H](NC(=O)C(F)(F)F)C(=O)N1C[C@H]2[C@@H]([C@H]1C(=O)N[C@H](C#N)C[C@@H]1CCNC1=O)C2(C)C [Nirmatrelvir]', 0.26);

====

# TEST: in vivo
# RECORDED_CONDITIONS: female, Sprague-Dawley, rat, iv, 15 mg/kg, MRT (mean residence time), nonpregnant female rats, brain, nirmatrelvir 15 mg/kg i.v. alone
PROPERTY: MRT (h)

INSERT INTO assay_data (compound, property, value_measured) VALUES
  ('CC(C)(C)[C@H](NC(=O)C(F)(F)F)C(=O)N1C[C@H]2[C@@H]([C@H]1C(=O)N[C@H](C#N)C[C@@H]1CCNC1=O)C2(C)C [Nirmatrelvir]', 'MRT', 1.55);
